Biological target: Adenosine receptor A3 (Homo sapiens, UniProt P0DMS8)
Sequence (P0DMS8 whole entry): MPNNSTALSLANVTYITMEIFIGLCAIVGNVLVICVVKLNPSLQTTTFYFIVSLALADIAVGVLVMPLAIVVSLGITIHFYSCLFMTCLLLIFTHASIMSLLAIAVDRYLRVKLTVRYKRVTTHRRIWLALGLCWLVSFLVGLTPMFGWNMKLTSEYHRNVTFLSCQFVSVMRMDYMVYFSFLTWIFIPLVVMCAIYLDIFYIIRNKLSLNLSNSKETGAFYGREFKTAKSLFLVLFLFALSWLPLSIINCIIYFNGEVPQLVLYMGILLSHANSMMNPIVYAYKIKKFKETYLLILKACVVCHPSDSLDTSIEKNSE
Assay: Displacement of [3H]MRE3008-F20 from human Adenosine A3 receptor expressed in HEK cells; range 0.65-1.58
Format: cell-based, HEK293
pKi: −log10 of the molar value.
readout.label: pKi

>>> df
                         compound_structure  observed
0  CCCn1cc2c(nc(NC(=O)Cc3ccccc3)n3nc(-c4ccco4)nc23)n1      9.00

Data provenance: ChEMBL document CHEMBL1136016
